This section presents molecules with their documented IC50 values.
Tested on: Aβtotal
ASSAY TEXT: Screening for γ-secretase-modulating activity, Method 1: Aβtotal sandwich ELISA on SKNBE2 cell media
Format: cell-based
ASSAY CONTEXT: Homo sapiens; Table 3a; SKNBE2 cells carrying APP 695 wild type, 18 hours; XLfit, top/bottom fixed to 100 and 0, hill slope 1
MEASUREMENT LABEL: IC50

Cc1cn(-c2ccc(Nc3cccc4c3nc(-c3ccc(F)cc3)n4C)cc2)cn1    > 1 µM
COc1cc(Nc2cccc3c2nc(CC2CCN(C)CC2)n3C)ccc1-n1cnc(C)c1    12.1 µM
COc1cc(Nc2cccc3oc(-c4ccccc4Cl)nc23)ccc1-n1cnc(C)c1    > 10 µM
COc1cc(Nc2cccc3c2nc(-c2ccccc2C)n3Cc2ccccc2)ccc1-n1cnc(C)c1    > 1 µM
COc1cc(Nc2cccc3c2nc(-c2ccc(F)cc2)n3C(C)C)ccc1-n1cnc(C)c1    > 1 µM
